For each entry below, report its TGI value.
Test system: 786-0 renal
assay.overview: NCI tumour cell line growth inhibition, 48 h
Report only the number, with the unit µM understood.

Query: Value lookup for TGI; key = COc1cc(OCCN(C)C)c2[nH]c(C(=O)N3CC(CCl)c4ccc(N)cc43)cc2c1 (stereo not given)
Response: 1.47

Query: Value lookup for TGI; key = NC(=S)N/N=C1\c2cc(Cl)ccc2-c2c1cc(Cl)cc2[N+](=O)[O-]
Response: 91.3

----------
Tested on: T-47D breast
assay.overview: NCI tumour cell line growth inhibition, 48 h
Where a SMILES comes first, the peptide text is derived from it. The star is where a group is joined. OSu = O=C1CCC(=O)N1O*
For each entry below, report its TGI value.

Query: Which TGI is reported with T-47D breast for this entry: O=C1c2cc3c(cc2CC12Cc1ccc4c(c1C2=O)CCC4)CCCC3 (stereo not given) ?
Response: > 100 µM

Query: Which TGI is reported with T-47D breast for this entry: Cc1nnc2ccnn2c1C ?
Response: > 100 µM

Query: Which TGI is reported with T-47D breast for this entry: O=C(NC1CCCCC1)NS(=O)(=O)c1ccc(N2N=C3c4ccccc4CC3C2c2ccc(Cl)cc2)cc1 (stereo not given) ?
Response: > 100 µM

Query: Which TGI is reported with T-47D breast for this entry: NC(Cc1ccccc1)C(=O)NC(Cc1ccccc1)NC(=O)C(Cc1c[nH]c2ccccc12)C(=O)O (stereo not given) ?
Response: > 100 µM

Query: Which TGI is reported with T-47D breast for this entry: NCCCCC(NC(=O)C(N)Cc1ccc(O)cc1)C(=O)NC(CCCCN)C(=O)NC(CCCCN)C(=O)ON1C(=O)CCC1=O (stereo not given) (H-YKKK-OSu; configuration not given here) ?
Response: > 100 µM

Query: Which TGI is reported with T-47D breast for this entry: O=C1OCC2=C1C(c1cccc(Br)c1)c1cc3c(cc1N2CCO)OCCO3 (stereo not given) ?
Response: > 41.3 µM

Query: Which TGI is reported with T-47D breast for this entry: COc1ccc(C2=CC(C(C)=C(C(N)=O)C(N)=O)C=C(c3ccc(Br)cc3)C2)c(OC)c1 (stereo not given) ?
Response: > 100 µM

Query: Which TGI is reported with T-47D breast for this entry: Cc1ccc(-c2nc(N3CCNCC3)c3oc(-c4ccc(C)cc4)nc3n2)cc1 ?
Response: > 61.1 µM

Query: Which TGI is reported with T-47D breast for this entry: O=c1[nH]c(=O)c2c3n(cc2[nH]1)CCCCC3 ?
Response: > 100 µM

Query: Which TGI is reported with T-47D breast for this entry: COc1ccc(C2c3cc4c(cc3OC3(OC)COC(=O)C23)OCO4)c(OC)c1 (stereo not given) ?
Response: > 100 µM

----------
For each entry below, report its TGI value.
System: SF-295 CNS
assay.overview: NCI tumour cell line growth inhibition, 48 h

Query: Which TGI is reported with SF-295 CNS for this entry: CCOC(=O)C(=[N+]=[N-])C(=O)CN1C(=O)c2ccccc2C1=O ?
Response: > 100 µM

Query: Which TGI is reported with SF-295 CNS for this entry: O=c1[nH]c(-c2ccccc2)nc2cc(Cl)ccc12 ?
Response: > 100 µM

Query: Which TGI is reported with SF-295 CNS for this entry: CCOC(=O)n1cc(C2=C(c3ccc(OC)c(OC)c3)COC2=O)c2ccccc21 ?
Response: > 100 µM

----------
For each entry below, report its TGI value.
Test system: U251 CNS
assay.overview: NCI tumour cell line growth inhibition, 48 h

Query: Value lookup for TGI; key = O=c1cc(-c2ccc3c(c2)OCO3)[nH]c2cc3c(cc12)OCO3
Response: 99 µM

Query: Value lookup for TGI; key = OC(c1cc(C(F)(F)F)nc2c(C(F)(F)F)cccc12)C1CCCCN1 (centres undefined)
Response: 4.25 µM

Query: Value lookup for TGI; key = [O-][Cl+3]([O-])([O-])[O-].[O]=[Ru]=[O].c1ccc(-c2ccccn2)nc1.c1ccc(-c2ccccn2)nc1
Response: > 100 µM

Query: Value lookup for TGI; key = COC(=O)[C@]12CC[C@@H](C)[C@H](C)[C@@H]1C1=CC[C@@H]3[C@@]4(C)C[C@@H](O)[C@H](O)[C@@](C)(CO)[C@@H]4[C@H](O)C[C@@]3(C)[C@]1(C)CC2
Response: 40.9 µM

Query: Value lookup for TGI; key = COc1c2ccccc2c(OC)c2[nH]c(=O)ccc12
Response: > 69 µM

Query: Value lookup for TGI; key = COc1cc(/C=C2\CN(S(=O)(=O)c3ccc(C)cc3)C/C(=C\c3cc(CN4CCCC4)c(O)c(OC)c3)C2=O)cc(CN2CCCC2)c1O
Response: 2.34 µM

Query: Value lookup for TGI; key = CCOC(=O)C(=[N+]=[N-])C(=O)CN1C(=O)c2ccccc2C1=O
Response: > 100 µM

Query: Value lookup for TGI; key = O=S(=O)(O)c1cc(N=Nc2c(O)ccc3ccccc23)cc2c(S(=O)(=O)O)cccc12
Response: > 100 µM

Query: Value lookup for TGI; key = C[C@]12[C@@H]3CC[C@H]1[C@@H](O)C(=O)N2CC3
Response: > 100 µM

Query: Value lookup for TGI; key = CN(C)C=Nc1nc(=O)n(C2CCC(CO)O2)cc1F (centres undefined)
Response: > 100 µM

Query: Value lookup for TGI; key = COc1cccc(-c2cc(=O)c3cc(N4CCCCC4)ccc3[nH]2)c1
Response: > 85.9 µM

Query: Value lookup for TGI; key = O=C(Nc1cccc(C(F)(F)F)c1)Nc1cccc(C(F)(F)F)c1
Response: 3.14 µM

Query: Value lookup for TGI; key = O=C(C(=O)n1ccc2ccccc21)n1ccc2ccccc21
Response: > 100 µM

Query: Value lookup for TGI; key = Cc1ccc2nc(-c3ccccc3)cc(=O)n2c1
Response: > 100 µM

Query: Value lookup for TGI; key = COC(=O)c1cc2oc(/C=C3/SC(=S)N(NC(C)=O)C3=O)cc2n1C
Response: 45 µM

Query: Value lookup for TGI; key = CNC(=O)NCCCC(NC(C)=O)C(=O)NCc1ccccc1 (centres undefined)
Response: > 100 µM

Query: Value lookup for TGI; key = COc1ccc2oc3c(C)cc4c(OC)nnc(OC)c4c3c2c1
Response: 14.8 µM

Query: Value lookup for TGI; key = O=C1/C(=C/c2ccco2)NC(=S)N1CN1CCCCC1
Response: > 100 µM

Query: Value lookup for TGI; key = Cc1[nH]c(=O)nc2sc(=NC3CCCCC3)n(C3CCCCC3)c(=O)c12
Response: > 100 µM

----------
Tested on: SK-OV-3 ovarian
assay.overview: NCI tumour cell line growth inhibition, 48 h
measured.attribute: TGI

Query: Value lookup for TGI; key = CN(C)C(=S)/N=c1\ssc(=S)n1C1CCCCC1
Response: > 100 µM

Query: Value lookup for TGI; key = Cc1[nH]c(=O)nc2sc(=NC3CCCCC3)n(C3CCCCC3)c(=O)c12
Response: > 100 µM

Query: Value lookup for TGI; key = CN(C)CC1CCCC/C1=N/O (stereo unspecified)
Response: > 100 µM

Query: Value lookup for TGI; key = O=C1c2cccc3cc([N+](=O)[O-])cc(c23)C(=O)N1Nc1ccc([N+](=O)[O-])cc1[N+](=O)[O-]
Response: > 31.6 µM

Query: Value lookup for TGI; key = CC1=NN(c2nc(N)nc(COc3ccc(N)cc3)n2)C(C)(C)C1
Response: > 100 µM

Query: Value lookup for TGI; key = CN(C)c1ccc(/C=N/NC(=S)Nc2ccccc2)cc1
Response: > 100 µM

----------
For each entry below, report its TGI value.
Tested on: HT29 colon
assay.overview: NCI tumour cell line growth inhibition, 48 h

Query: Value lookup for TGI; key = Cn1cc(-c2cc3c(N4CCN(c5ncc([C@@](C)(N)c6ccc(F)cc6)cn5)CC4)ncnn3c2)cn1
Response: > 100 µM

Query: Value lookup for TGI; key = CCOC(=O)C(=[N+]=[N-])C(=O)CN1C(=O)c2ccccc2C1=O
Response: > 100 µM

Query: Value lookup for TGI; key = O=C1c2cc3c(cc2CC12Cc1ccc4c(c1C2=O)CCC4)CCCC3 (stereo not drawn)
Response: > 100 µM

----------
Test system: HS 578T breast
assay.overview: NCI tumour cell line growth inhibition, 48 h
measured.attribute: TGI

Query: Value lookup for TGI; key = NC(=S)N/N=C\c1nccc2c(C(F)(F)F)cccc12
Response: > 58.8 µM

Query: Value lookup for TGI; key = C[C@]12[C@@H]3CC[C@H]1[C@@H](O)C(=O)N2CC3
Response: > 100 µM

Query: Value lookup for TGI; key = O=[N+]([O-])c1ccc2nc(Nc3ccccc3)c(Nc3ccccc3)nc2c1
Response: 8.75 µM

Query: Value lookup for TGI; key = C=C(C)C12OC1[C@@]1(C)C(=CC2=O)CCC(O)[C@@H]1C (some centres undefined)
Response: 9.26 µM

Query: Value lookup for TGI; key = CCCCCCc1cc2cc(-c3cn4ccsc4n3)c(=O)oc2cc1O
Response: > 77 µM

Query: Value lookup for TGI; key = CC(C)(CN1CCCCC1)C(/C=C/c1ccc(Cl)cc1)=N\NC(=O)N/N=C(/C=C/c1ccc(Cl)cc1)C(C)(C)CN1CCCCC1
Response: 19.9 µM

Query: Value lookup for TGI; key = O=C(O)Cc1ccc([N+](=O)[O-])cc1[N+](=O)[O-]
Response: > 100 µM

Query: Value lookup for TGI; key = COc1ccc(C(SCCO)(c2ccccc2)c2ccc(OC)cc2)cc1
Response: > 44.1 µM

Query: Value lookup for TGI; key = O=C(C(=O)n1ccc2ccccc21)n1ccc2ccccc21
Response: > 100 µM
